- test.system: T1, ARHGEF11, O15085
- T1 sequence (O15085 42-136, limits assumed, looked up): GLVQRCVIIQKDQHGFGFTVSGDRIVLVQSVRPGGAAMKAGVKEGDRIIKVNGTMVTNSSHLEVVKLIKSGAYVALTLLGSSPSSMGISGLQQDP
- method.notes: holdup assay
- Parameters: key: below the threshold = too weak to quantify, mostly under pKd 3.1 to 4
- measurement.context: plain residues with an end cap or a label only (N-terminal biotin on a linker: ado-ado)
# if value of pKd reaches 4, tag 1; if it stays below, tag 0

binder | label
THHRKIHTRV [ZNF599, Q96NL3] | 1
AHGSTRDQSI [KCNB1, Q14721] | 1
DLLGGGSDSI [TNRC6B, Q9UPQ9] | 0
VCMGDHWFDV [PRKN, O60260] | 1
IGHEDLETAV [DGKI, O75912] | 1
QKNKDREYYV [NRXN3, Q9HDB5] | 1
GQNMTVSVVI [PRLHR, P49683] | 1
NKSEPFLTWL [WWTR1, Q9GZV5] | 1
SRPHTNETSL [MCC, P23508] | 1
SSSVNVSSNL [CXCR1, P25024] | 0
YAEKRMLTEV [KCNA6, P17658] | 1
SGDGKTSVWI [GJC1, P36383] | 0
HYPASPDSWV [CTNND2, Q9UQB3] | 0
LLQEEWETVM [PTH1R, Q03431] | 0
FHSIKQSTAV [CRHR1, P34998] | 1
GTMFLRETSL [GUCY1A2, P33402] | 1
